Target: Cholinesterase (Equus caballus, UniProt P81908)
Sequence (P81908 whole entry): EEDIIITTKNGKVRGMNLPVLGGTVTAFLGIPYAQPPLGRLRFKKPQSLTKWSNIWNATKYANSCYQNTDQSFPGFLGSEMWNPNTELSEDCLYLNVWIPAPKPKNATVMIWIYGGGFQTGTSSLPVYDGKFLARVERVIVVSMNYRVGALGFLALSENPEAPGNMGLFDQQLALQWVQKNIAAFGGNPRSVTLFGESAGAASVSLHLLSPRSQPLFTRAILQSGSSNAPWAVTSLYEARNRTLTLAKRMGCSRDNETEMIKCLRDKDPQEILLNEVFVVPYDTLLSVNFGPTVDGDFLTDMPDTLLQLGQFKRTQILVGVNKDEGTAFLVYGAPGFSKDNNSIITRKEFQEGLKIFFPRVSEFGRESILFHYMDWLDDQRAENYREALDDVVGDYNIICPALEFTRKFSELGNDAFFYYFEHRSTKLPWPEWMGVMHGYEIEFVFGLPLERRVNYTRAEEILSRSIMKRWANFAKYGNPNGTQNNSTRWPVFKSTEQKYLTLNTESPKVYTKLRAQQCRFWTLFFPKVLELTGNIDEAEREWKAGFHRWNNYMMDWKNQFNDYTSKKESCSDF
Test: Inhibition of equine serum BuChE using butyrylthiocholine as substrate preincubated for 5 mins followed by substrate addition measured after 20 mins by Ellman's method
pIC50: −log10 of the molar value.

Molecule: O=c1cc(-c2ccc(O)c(O)c2)c2ccc(O)c(O)c2o1
pIC50: 3.72
//
Molecule: O=C1CC(c2ccc(O)cc2)c2c(O)cc(O)cc2O1 (stereo not drawn)
pIC50: < 3.52
//
Molecule: O=c1cc(-c2ccc(O)cc2)c2ccc(O)c(O)c2o1
pIC50: < 3.52
//
Molecule: COc1ccc(C2CC(=O)Oc3cc(O)ccc32)cc1 (stereo not drawn)
pIC50: < 3.52
//
Molecule: COc1ccc(-c2cc(=O)oc3c(O)c(O)ccc23)cc1OC
pIC50: < 3.52
//
Molecule: COc1cc(-c2cc(=O)oc3c(O)c(O)ccc23)cc(OC)c1OC
pIC50: < 3.52
//
Molecule: COc1cc(C2CC(=O)Oc3c2ccc(O)c3O)ccc1O (stereo not drawn)
pIC50: 3.87
//
Molecule: COc1ccc(C2CC(=O)Oc3cc(O)cc(O)c32)cc1 (stereo not drawn)
pIC50: < 3.52

====

Hi! I'm sharing some IC50 results obtained with Acetylcholinesterase (Electrophorus electricus, UniProt O42275).
Sequence (O42275 whole entry): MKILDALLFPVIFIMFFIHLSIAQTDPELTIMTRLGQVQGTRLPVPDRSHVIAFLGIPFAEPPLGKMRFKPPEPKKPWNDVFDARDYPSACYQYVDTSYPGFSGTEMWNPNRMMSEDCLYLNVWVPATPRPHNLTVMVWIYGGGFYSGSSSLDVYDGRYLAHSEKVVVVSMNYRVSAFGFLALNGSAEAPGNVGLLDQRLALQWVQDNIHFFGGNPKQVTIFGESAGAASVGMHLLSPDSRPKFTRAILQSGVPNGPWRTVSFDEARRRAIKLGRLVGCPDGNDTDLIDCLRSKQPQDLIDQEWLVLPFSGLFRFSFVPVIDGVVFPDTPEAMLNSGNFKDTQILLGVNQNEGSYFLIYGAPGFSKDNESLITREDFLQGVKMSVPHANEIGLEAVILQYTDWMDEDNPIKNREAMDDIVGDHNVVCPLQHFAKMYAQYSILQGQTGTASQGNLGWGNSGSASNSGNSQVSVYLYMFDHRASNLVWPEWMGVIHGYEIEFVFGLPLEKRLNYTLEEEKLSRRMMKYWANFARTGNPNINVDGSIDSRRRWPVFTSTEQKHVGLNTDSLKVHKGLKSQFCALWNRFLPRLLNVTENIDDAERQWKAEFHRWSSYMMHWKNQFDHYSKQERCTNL
Attribute Measured: IC50

Compound: O=C1CC(c2ccc(O)cc2)c2c(O)cc(O)cc2O1 (stereo unspecified)
Attribute Measured: IC50
Endpoint Result: > 50000 nM
//
Compound: COc1ccc(C2CC(=O)Oc3cc(O)ccc32)cc1 (stereo unspecified)
Attribute Measured: IC50
Endpoint Result: > 50000 nM
//
Compound: O=C1CC(c2ccc(O)c(O)c2)c2ccc(O)c(O)c2O1 (stereo unspecified)
Attribute Measured: IC50
Endpoint Result: 283 nM
//
Compound: COc1cc(-c2cc(=O)oc3c(O)c(O)ccc23)cc(OC)c1OC
Attribute Measured: IC50
Endpoint Result: 299 nM
//
Compound: COc1ccc(-c2cc(=O)oc3c(O)c(O)ccc23)cc1OC
Attribute Measured: IC50
Endpoint Result: 52 nM
//
Compound: O=c1cc(-c2ccc(O)c(O)c2)c2ccc(O)cc2o1
Attribute Measured: IC50
Endpoint Result: 8860 nM

====

Molecular target: Cholinesterase (Equus caballus)
Test: Inhibition of equine serum BuChE using butyrylthiocholine as substrate preincubated for 5 mins followed by substrate addition measured after 20 mins by Ellman's method

Molecule: O=c1cc(-c2ccc(O)c(O)c2)c2ccc(O)cc2o1
IC50: > 300 µM

Molecule: COc1ccc(-c2cc(=O)oc3cc(O)cc(O)c23)cc1OC
IC50: > 300 µM

Molecule: COc1ccc(C2CC(=O)Oc3c(O)cc(O)cc32)cc1OC (configuration not stated)
IC50: > 300 µM

Molecule: COc1cc(C2CC(=O)Oc3cc(O)ccc32)ccc1O (configuration not stated)
IC50: > 300 µM

Molecule: O=c1cc(-c2cc(O)c(O)c(O)c2)c2ccc(O)c(O)c2o1
IC50: 106 µM

Molecule: COc1ccc(C2CC(=O)Oc3cc(O)cc(O)c32)cc1OC (configuration not stated)
IC50: > 300 µM

Molecule: O=C1CC(c2ccc(O)c(O)c2)c2ccc(O)c(O)c2O1 (configuration not stated)
IC50: 72.5 µM

Molecule: COc1ccc(C2CC(=O)Oc3c2ccc(O)c3O)cc1 (configuration not stated)
IC50: 149 µM

Molecule: COc1ccc(C2CC(=O)Oc3c(O)cc(O)cc32)cc1 (configuration not stated)
IC50: > 300 µM

Molecule: COc1cc(C2CC(=O)Oc3cc(O)cc(O)c32)ccc1O (configuration not stated)
IC50: > 300 µM

Molecule: O=c1cc(-c2ccc(O)c(O)c2)c2cc(O)cc(O)c2o1
IC50: 208 µM

Molecule: COc1ccc(C2CC(=O)Oc3ccc(O)cc32)cc1OC (configuration not stated)
IC50: > 300 µM
